# ASSAYED SYSTEM: Human Factor D (Homo sapiens (Human))
# Sequence (P00746 26-253): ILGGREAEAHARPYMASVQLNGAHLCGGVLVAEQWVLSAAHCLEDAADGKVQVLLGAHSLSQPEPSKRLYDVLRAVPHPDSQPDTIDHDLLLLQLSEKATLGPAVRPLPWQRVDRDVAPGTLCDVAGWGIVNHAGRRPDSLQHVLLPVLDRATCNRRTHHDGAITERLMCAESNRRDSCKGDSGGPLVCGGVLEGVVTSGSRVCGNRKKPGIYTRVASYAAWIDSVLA
# METHOD SUMMARY: Human Factor D assay (Z-L-Lys-SBzl / DTNB, absorbance at 405 nm)
# Type: biochemical
# TEST CONDITIONS: Table 3; Human Factor D 80 nM, assay of Example 13
QUANTITY MEASURED: IC50

Cn1cnc2c(Cl)c(-c3cccc(NC(=O)[C@@H]4C[C@@H](F)CN4C(=O)Cn4nc(C(N)=O)c5ccccc54)c3F)ccc21 ... < 1 µM

# value of IC50, Human Factor D (Homo sapiens (Human)), item NC(=O)c1nn(CC(=O)N2C[C@H](F)C[C@H]2C(=O)Nc2cccc(-c3ccc4cn[nH]c4c3)c2F)c2ccccc12 = < 1 µM

# value of IC50, Human Factor D (Homo sapiens (Human)), item NC(=O)c1nn(CC(=O)N2C[C@H](F)C[C@H]2C(=O)Nc2cccc(-c3ccc4ocnc4c3)c2F)c2ccccc12 = < 1 µM

# value of IC50, Human Factor D (Homo sapiens (Human)), item CC(=O)c1cn(CC(=O)OC(C)(C)C)c2cc(-c3cccc(NC(=O)[C@@H]4C[C@@H](F)CN4C(=O)Cn4nc(C(N)=O)c5ccccc54)c3F)ccc12 = 1 to 10 µM

# value of IC50, Human Factor D (Homo sapiens (Human)), item CO/N=C(\C)c1ccc(Cl)c(-c2cccc(NC(=O)[C@@H]3C[C@@H](F)CN3C(=O)Cn3nc(C(N)=O)c4ccccc43)c2F)c1 = < 1 µM

# value of IC50, Human Factor D (Homo sapiens (Human)), item NC(=O)c1nn(CC(=O)N2C[C@H](F)C[C@H]2C(=O)Nc2cccc(-c3ccc4c(c3Cl)NC(=O)CN4)c2F)c2ccccc12 = < 1 µM

* * *

Listing: pIC50 of selected molecules
# ASSAYED SYSTEM: UniProtKB P00746
# METHOD SUMMARY: Human Factor D assay (Z-L-Lys-SBzl / DTNB, absorbance at 405 nm)
# Assay type: biochemical
# TEST CONDITIONS: Table 3; Human Factor D 80 nM, assay of Example 13
pIC50: −log10 of the molar value.

N#Cc1n[nH]c2ccc(-c3cccc(NC(=O)[C@@H]4C[C@@H](F)CN4C(=O)Cn4nc(C(N)=O)c5ccccc54)c3F)cc12 [Compound 13] ... > 6.00
NC(=O)c1nn(CC(=O)N2C[C@H](F)C[C@H]2C(=O)Nc2cccc(-c3ccc4nonc4c3)c2F)c2ccccc12 [Compound 68] ... > 6.00
CC(=O)c1cn(CC(=O)N2C[C@H](F)C[C@H]2C(=O)Nc2cccc(-c3ccc4[nH]cnc4c3Cl)c2F)c2ccccc12 [Compound 2] ... > 6.00

# value of pIC50, UniProtKB P00746, item C[C@H](O)c1nc2c(Cl)c(-c3cccc(NC(=O)[C@@H]4C[C@@H](F)CN4C(=O)Cn4nc(C(N)=O)c5ccccc54)c3F)ccc2[nH]1 [Compound 14] = > 6.00

# value of pIC50, UniProtKB P00746, item NC(=O)c1nn(CC(=O)N2C[C@H](F)C[C@H]2C(=O)Nc2cccc(-c3ccc4nc(F)[nH]c4c3Cl)c2F)c2ccccc12 [Compound 44] = > 6.00

# value of pIC50, UniProtKB P00746, item NC(=O)c1cn(CC(=O)N2C[C@H](F)C[C@H]2C(=O)Nc2cccc(Br)n2)n2ccnc12 [Compound 55] = < 5.00

FYI, the data here is from patent US10807952B2.
